# pKi annotations
- TARGET DESC: human dopamine D2L receptors (long isoform) (Homo sapiens)
- Construct: expressed in transfected cells; membranes
- ASSAY OVERVIEW: Dopamine D2L receptor binding, [125I] iodospiperone displacement
- CONDITION LABEL: membranes of HEK-293 cells stably expressing human D2L receptor; 0.01 nM [125I] iodospiperone; 25° C., 60 minutes; read-out: Ki(D2)*
pKi: −log10 of the molar value.

[
  {
    "COMPOUND": "CCC(=O)N1CCC[C@@H]2Cc3cc(NS(=O)(=O)c4ccc(C(C)C)cc4)ccc3C[C@H]21 (relative stereo) [Example 22]",
    "pKi": 5.74
  },
  {
    "COMPOUND": "CCCN[C@@H]1CCc2cc(NS(=O)(=O)c3ccc(C(C)C)cc3)ccc2C1 [Example 3]",
    "pKi": 7.99
  },
  {
    "COMPOUND": "C=CCN[C@H]1CCc2cc(NS(=O)(=O)c3ccc(C(C)C)cc3)ccc2C1.Cl [Example 7, hydrochloride]",
    "pKi": 6.82
  },
  {
    "COMPOUND": "CCCN[C@H]1CCc2cc(NS(=O)(=O)c3ccc(C(C)C)cc3)ccc2C1.Cl [Example 8, hydrochloride]",
    "pKi": 7.30
  },
  {
    "COMPOUND": "CCCN[C@H]1CCc2cc(NS(=O)(=O)c3ccc(-c4cnco4)s3)ccc2C1 [Example 38]",
    "pKi": 6.14
  }
]

====

- TARGET DESC: human dopamine D2L receptors (long isoform) (Homo sapiens, UniProt P14416)
- Construct: membranes
- Sequence (P14416 whole entry, canonical isoform): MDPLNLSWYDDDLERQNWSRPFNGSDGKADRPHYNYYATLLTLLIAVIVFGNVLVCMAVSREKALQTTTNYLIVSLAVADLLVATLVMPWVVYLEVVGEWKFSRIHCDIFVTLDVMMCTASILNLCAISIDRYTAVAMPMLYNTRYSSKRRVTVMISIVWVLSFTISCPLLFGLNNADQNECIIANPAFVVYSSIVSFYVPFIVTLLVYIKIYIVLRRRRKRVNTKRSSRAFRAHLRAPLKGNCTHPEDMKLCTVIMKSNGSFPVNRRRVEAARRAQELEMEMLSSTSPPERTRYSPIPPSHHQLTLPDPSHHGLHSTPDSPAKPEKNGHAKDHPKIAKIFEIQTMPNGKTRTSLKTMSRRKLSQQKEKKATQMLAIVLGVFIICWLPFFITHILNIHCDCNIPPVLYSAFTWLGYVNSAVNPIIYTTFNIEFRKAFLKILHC
- ASSAY OVERVIEW: Dopamine D2L receptor binding, [125I] iodospiperone displacement
- CONDITION LABEL: membranes of HEK-293 cells stably expressing human D2L receptor; 0.01 nM [125I] iodospiperone; 25° C., 60 minutes; read-out: Ki(D2)*
pKi: −log10 of the molar value.
Hi, to clarify the labels: 1 (yes) covers pKi from 6 upward, 0 (no) covers anything below 6.

[
  {
    "COMPOUND": "C=CCN1CCC[C@H]2c3ccc(NS(=O)(=O)c4ccc(C(C)C)cc4)cc3CC[C@@H]21",
    "CATEGORY LABEL": "1 (yes)"
  },
  {
    "COMPOUND": "CCCN[C@@H]1CCc2ccc(NS(=O)(=O)c3ccc(C(C)C)cc3)cc2C1",
    "CATEGORY LABEL": "1 (yes)"
  },
  {
    "COMPOUND": "CCCNC1COc2cc(NS(=O)(=O)c3ccc(C(C)C)cc3)cnc2C1 (centres unmarked)",
    "CATEGORY LABEL": "0 (no)"
  },
  {
    "COMPOUND": "CCCN[C@H]1CCc2cc(NS(=O)(=O)c3ccc(C(C)C(F)F)cc3)ccc2C1.Cl (some centres unmarked) [Example 77, hydrochloride]",
    "CATEGORY LABEL": "1 (yes)"
  },
  {
    "COMPOUND": "CCCN[C@H]1CCc2cc(NS(=O)(=O)c3ccc(N4CC[C@@H](F)C4)cc3)ccc2C1",
    "CATEGORY LABEL": "1 (yes)"
  },
  {
    "COMPOUND": "C=CCN[C@H]1CCc2cc(N(C)S(=O)(=O)c3ccc(C(C)C)cc3)ccc2C1",
    "CATEGORY LABEL": "1 (yes)"
  },
  {
    "COMPOUND": "CCCN[C@H]1CCc2cc(NS(=O)(=O)c3ccc(-c4ccon4)s3)ccc2C1",
    "CATEGORY LABEL": "0 (no)"
  }
]

====

This listing pairs molecules with measured Ki(D2)*/Ki(D3)*.
- TARGET DESC: human dopamine D3 receptors (Homo sapiens, UniProt P35462)
- Construct: expressed in transfected cells; membranes
- Sequence (P35462 whole entry): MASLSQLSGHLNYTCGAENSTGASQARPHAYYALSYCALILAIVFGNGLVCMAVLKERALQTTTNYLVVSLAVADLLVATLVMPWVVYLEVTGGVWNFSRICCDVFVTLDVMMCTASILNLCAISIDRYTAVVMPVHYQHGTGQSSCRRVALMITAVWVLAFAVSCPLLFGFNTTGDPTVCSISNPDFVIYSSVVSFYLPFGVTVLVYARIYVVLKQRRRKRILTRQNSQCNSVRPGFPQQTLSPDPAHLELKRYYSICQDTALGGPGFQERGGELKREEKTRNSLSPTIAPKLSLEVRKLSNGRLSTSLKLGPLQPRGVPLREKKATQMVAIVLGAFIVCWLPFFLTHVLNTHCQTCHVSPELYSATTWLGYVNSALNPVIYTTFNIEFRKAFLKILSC
- ASSAY OVERVIEW: Dopamine D3 receptor binding, [125I]-iodosulpride displacement
- CONDITION LABEL: selectivity ratio of receptor binding constants D2 versus D3
PROPERTY: Ki(D2)*/Ki(D3)*

[
  {
    "MOLECULE": "CCCN[C@H]1CCc2cc(NS(=O)(=O)c3ccc(N4CCOCC4)cc3)ccc2C1 [Example 45]",
    "OBSERVED": 94
  },
  {
    "MOLECULE": "C=CCN[C@@H]1CCc2cc(NS(=O)(=O)c3ccc(C(C)C)cc3)ccc2C1.Cl [Example 6]",
    "OBSERVED": 52
  },
  {
    "MOLECULE": "CCCNC1CCc2cc(NS(=O)(=O)c3ccc(C(C)C)cc3)cnc2C1 (centres unmarked) [Example 15]",
    "OBSERVED": 42
  },
  {
    "MOLECULE": "CCCN(CCC)[C@H]1CCc2cc(NS(=O)(=O)c3ccc(C(C)C)cc3)ccc2C1.Cl [Example 30]",
    "OBSERVED": 29
  },
  {
    "MOLECULE": "CCCN[C@H]1CCc2cc(NS(=O)(=O)c3ccc(-c4ccon4)s3)ccc2C1 [Example 43]",
    "OBSERVED": 113
  },
  {
    "MOLECULE": "CCCN[C@H]1CCc2cc(NS(=O)(=O)c3ccc(C4CC4(F)F)cc3)ccc2C1.Cl (some centres unmarked) [Example 48]",
    "OBSERVED": 128
  },
  {
    "MOLECULE": "CCCN[C@H]1CCc2cc(NS(=O)(=O)c3ccc(N4CC[C@@H](F)C4)cc3)ccc2C1 [Example 44]",
    "OBSERVED": 416
  },
  {
    "MOLECULE": "CCN[C@H]1CCc2cc(NS(=O)(=O)c3ccc(OC(F)(F)F)cc3)ccc2C1.Cl [Example 63]",
    "OBSERVED": 40
  }
]

====

- TARGET DESC: human dopamine D2L receptors (long isoform) (Homo sapiens, UniProt P14416)
- Construct: membranes
- ASSAY OVERVIEW: Dopamine D2L receptor binding, [125I] iodospiperone displacement
- CONDITION LABEL: membranes of HEK-293 cells stably expressing human D2L receptor; 0.01 nM [125I] iodospiperone; 25° C., 60 minutes; read-out: Ki(D2)*
- Method: The substance to be tested was either dissolved in methanol/Chremophor® (BASF-AG) or in dimethyl sulfoxide and then diluted with water to the desired concentration. Each assay mixture was run in triplicate. […] The inhibition curves were analyzed by means of iterative nonlinear regression analysis using the Statistical Analysis System (SAS) which is similar to the “LIGAND” program described by Munson and Rodbard. […]
// Ki lookup, one value per entry

[
  {
    "COMPOUND": "CCCN[C@H]1CCc2cc(NS(=O)(=O)c3ccc(-n4cccn4)cc3)ccc2C1.Cl [Example 76, hydrochloride]",
    "Ki": "0.728 µM"
  },
  {
    "COMPOUND": "CCCNC1CCc2cc(NS(=O)(=O)c3ccc(C(C)C)cc3)cnc2C1 (stereo not drawn)",
    "Ki": "0.476 µM"
  },
  {
    "COMPOUND": "CCCN[C@H]1CCc2cc(N(C)S(=O)(=O)c3ccc(C(C)C)cc3)ccc2C1",
    "Ki": "0.238 µM"
  }
]

====

- TARGET DESC: human dopamine D3 receptors (Homo sapiens, UniProt P35462)
- Construct: expressed in transfected cells; membranes
- ASSAY OVERVIEW: Dopamine D3 receptor binding, [125I]-iodosulpride displacement
- CONDITION LABEL: selectivity ratio of receptor binding constants D2 versus D3
Threshold-based label: Ki(D2)*/Ki(D3)* under 100 gives rule met, Ki(D2)*/Ki(D3)* not under 100 gives rule not met.

[
  {
    "QUERY SMILES": "C=CCN[C@H]1CCc2cc(N(C)S(=O)(=O)c3ccc(C(C)C)cc3)ccc2C1",
    "CATEGORY LABEL": "rule met"
  },
  {
    "QUERY SMILES": "CCCN[C@H]1CCc2cc(NS(=O)(=O)c3ccc(CCC)s3)ccc2C1.Cl",
    "CATEGORY LABEL": "rule met"
  },
  {
    "QUERY SMILES": "CCCN[C@H]1CCc2cc(NS(=O)(=O)c3ccc(CC(F)(F)F)cc3)ccc2C1.Cl",
    "CATEGORY LABEL": "rule met"
  },
  {
    "QUERY SMILES": "CCCN[C@@H]1CCc2cc(NS(=O)(=O)c3ccc(CCCF)cc3)ccc2C1.Cl",
    "CATEGORY LABEL": "rule not met"
  },
  {
    "QUERY SMILES": "CCCN[C@H]1CCc2cc(NS(=O)(=O)c3ccc(N(C)C)cc3)ccc2C1.Cl",
    "CATEGORY LABEL": "rule met"
  }
]
